PROTOCOL_NOTES: rescue of nicotinamide-shortened yeast lifespan – S. cerevisiae, OD615, primary screen (AID 775);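 further: 0% = nicotinamide-treated wells and 100% = cells grown without nicotinamide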
CONDITION: S. cerevisiae growth with nicotinamide, at 10 µM, deaD strain in restrictive glucose medium
In all, about 130,000 compounds went through this assay and about 900 (0.69%) were called active.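 How the source made its calls: active means inhibition above a set limit, placed 3 SD over the median of all compounds (cut at about 26% in these data); inactive means the rest.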 The sample holds actives, similar compounds and a random draw of the others, so the mix is not that of the screen.
Return exactly one item of Y = active, N = inactive

Study these solved cases before continuing.
{"COMPOUND": "CCOC12CC(C)(C)CC(C)(CC3=C1C(=O)CC(C)(C)C3)C2 (stereo unspecified)", "CLASS_LABEL": "N"}
{"COMPOUND": "NC(=S)N/N=C/c1coc2cc(Cl)ccc2c1=O", "CLASS_LABEL": "Y"}
{"COMPOUND": "O=C(N/N=C/c1coc2ccccc2c1=O)c1cc2ccccc2o1", "CLASS_LABEL": "N"}
{"COMPOUND": "CCOC(=O)C1CCN(C(=O)/C=C/c2cc(OC)c(OC)c(OC)c2)CC1", "CLASS_LABEL": "N"}
{"COMPOUND": "COc1cccc(NC(=O)CC(c2ccc(OC(C)C)cc2)c2ccccc2OC)c1 (stereo unspecified)", "CLASS_LABEL": "N"}

Could you check what this test reported for CC(C)C(=O)N1CCN(CCN=CC2=C(O)CC(c3ccco3)CC2=O)CC1 (stereo unspecified) ?
N

Could you check what this test reported for O=S(=O)(ON(c1ccccc1)S(=O)(=O)c1ccccc1)c1ccccc1 ?
Y

Could you check what this test reported for O=C(/C=C/c1ccc([N+](=O)[O-])cc1)NCCSCc1ccco1 ?
N

---

PROTOCOL_NOTES: rescue of nicotinamide-shortened yeast lifespan – S. cerevisiae, OD615, primary screen (AID 775);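 further: 0% = nicotinamide-treated wells and 100% = cells grown without nicotinamide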
CONDITION: S. cerevisiae growth with nicotinamide, at 10 µM, hits give high values, deaD strain in restrictive glucose medium
Among all 130,000 compounds or so, about 900 (0.69%) were called active. The sample holds actives, similar compounds and a random draw of the others, so the mix is not that of the screen.
OBSERVED_PROPERTY: inhibition of the nicotinamide effect (%)
Dear colleague, please return just the value in %, with no unit written.

Previously resolved entries follow.
{"MOLECULE": "Cc1noc(/C=C/c2ccco2)c1S(=O)(=O)N1CCC(C(=O)Nc2ccc(Cl)cn2)CC1", "OBSERVED_PROPERTY": "inhibition of the nicotinamide effect", "UNIT": "%", "DATA_VALUE": 10.7}
{"MOLECULE": "CCn1c(NC(=O)c2nn(C)cc2Br)nc2ccccc21", "OBSERVED_PROPERTY": "inhibition of the nicotinamide effect", "UNIT": "%", "DATA_VALUE": -7.14}

# lookup: inhibition of the nicotinamide effect of COc1ccc(C(=O)NNS(=O)(=O)c2ccc(C)cc2)cc1
3.8

# lookup: inhibition of the nicotinamide effect of CC(=C1C(=O)c2ccccc2C1=O)N1CCN(c2ccccn2)CC1
54.4

# lookup: inhibition of the nicotinamide effect of CCS(=O)(=O)Nc1cccc(-c2cc(-c3ccccc3)c3cc(C)ccc3n2)c1
1.36

---

PROTOCOL_NOTES: rescue of nicotinamide-shortened yeast lifespan – S. cerevisiae, OD615, primary screen (AID 775);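 further: 0% = nicotinamide-treated wells and 100% = cells grown without nicotinamide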
CONDITION: S. cerevisiae growth with nicotinamide, at 10 µM, deaD strain in restrictive glucose medium
Hit rate of the full screen: of about 130,000 compounds, about 900 (0.69%) were called active.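 The calls were made as follows: active = inhibition above a set limit, placed 3 SD over the median of all compounds (cut at about 26% in these data); inactive = the rest.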 Shown is part of a subset that was picked to be rich in actives.
Return exactly one item of active, inactive

{"COMPOUND": "CC1CN(S(=O)(=O)c2ccc(C(=O)Nc3sccc3C(N)=O)cc2)CC(C)O1 (stereo not drawn)", "CLASS_LABEL": "inactive"}

Could you check what this test reported for O=C(NCC1CCCO1)c1ccc2ccccc2n1 (stereo not drawn) ?
inactive

Could you check what this test reported for CC(C)(C)c1ccc(/C=C/C(=O)Nc2ncccn2)cc1 ?
inactive

Could you check what this test reported for CC(C)Cc1nn2c(=O)cc(O)nc2s1 ?
active

Could you check what this test reported for O=C(NCCOCc1ccc(Cl)cc1)c1ncn[nH]1 ?
inactive

Could you check what this test reported for O=C1Cc2ccccc2Sc2ccc(Cl)cc21 ?
active

Could you check what this test reported for S=C(NCCc1ccccc1)NCC1CCCO1 (stereo not drawn) ?
inactive

Could you check what this test reported for Cc1nnc(NC(=O)/C=C/c2ccco2)s1 ?
inactive

Could you check what this test reported for NC(=O)c1ccccc1N=Cc1ccc2ccccc2c1 ?
inactive

Could you check what this test reported for O=C(COC(=O)/C=C/c1nc2ccccc2s1)Nc1ccccc1Oc1ccccc1 ?
inactive

Could you check what this test reported for Cc1cc(C(=O)COc2ccccc2[N+](=O)[O-])c(C)n1-c1cccc(S(=O)(=O)N2CCOCC2)c1 ?
inactive

---

PROTOCOL_NOTES: rescue of nicotinamide-shortened yeast lifespan – S. cerevisiae, OD615, primary screen (AID 775);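 further: 0% = nicotinamide-treated wells and 100% = cells grown without nicotinamide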
CONDITION: S. cerevisiae growth with nicotinamide, at 10 µM, hits give high values, deaD strain in restrictive glucose medium
Screen size: about 130,000 compounds; about 900 (0.69%) were called active. This is one part of a sample in which actives are shown more often than they occur.
OBSERVED_PROPERTY: inhibition of the nicotinamide effect (%)
Dear colleague, please return just the value in %, with no unit written.

Previously resolved entries follow.
{"COMPOUND": "O=C(NCc1ccccc1Cl)C1CCC(CNc2c(N3CCCCC3)c(=O)c2=O)CC1 (stereo not drawn)", "inhibition of the nicotinamide effect (%)": 3.91}
{"COMPOUND": "O=C(CN1C(=O)NC2(CCCCCC2)C1=O)NCc1cccs1", "inhibition of the nicotinamide effect (%)": 7.48}
{"COMPOUND": "Cc1ccc(S(=O)(=O)Nc2ccccc2CNc2c(C)n(C)n(-c3ccccc3)c2=O)cc1", "inhibition of the nicotinamide effect (%)": 43}

# lookup: inhibition of the nicotinamide effect of Cc1nc2ccccc2n1CC(=O)N/N=C/c1cccs1
2.27

# lookup: inhibition of the nicotinamide effect of CCCn1c(=O)c(-c2ccccc2)c(O)c2ccccc21
3.34

# lookup: inhibition of the nicotinamide effect of O=C1/C(=C\c2cccnc2)CN(Cc2ccccc2)C/C1=C\c1cccnc1
54.9

# lookup: inhibition of the nicotinamide effect of CC1(C)CC(=O)C=C(NC2CC(C)(C)NC(C)(C)C2)C1
5.33

# lookup: inhibition of the nicotinamide effect of Cn1c(=O)c(C(=O)Nc2ncccn2)c(O)c2ccccc21
-13.7

---

The following compounds are shown together with reported inhibition of the nicotinamide effect values.
PROTOCOL_NOTES: rescue of nicotinamide-shortened yeast lifespan – S. cerevisiae, OD615, primary screen (AID 775);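 further: 0% = nicotinamide-treated wells and 100% = cells grown without nicotinamide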
CONDITION: S. cerevisiae growth with nicotinamide, at 10 µM, hits give high values, deaD strain in restrictive glucose medium
About 900 (0.69%) of roughly 130,000 compounds were called active. The sample holds actives, similar compounds and a random draw of the others, so the mix is not that of the screen.
Dear colleague, please return just the value in %, with no unit written.

{"COMPOUND": "Cc1nnc(-c2ccc(Oc3ccc(C)c(C)c3)c([N+](=O)[O-])c2)o1", "inhibition of the nicotinamide effect (%)": -6.06}
{"COMPOUND": "CC1Cc2ccccc2N1C(=O)Cn1cnc2ccccc2c1=O (stereo not given)", "inhibition of the nicotinamide effect (%)": 55.5}
{"COMPOUND": "O=C(NCCc1ccccc1)C1CCC(Cn2c(=O)c3ccccc3n(Cc3cccnc3)c2=O)CC1 (stereo not given)", "inhibition of the nicotinamide effect (%)": 0.76}
{"COMPOUND": "COC(=O)c1ccc(C(=O)OC)c(NC(=S)N2CCN(c3ccc(F)cc3)CC2)c1", "inhibition of the nicotinamide effect (%)": -4.39}
{"COMPOUND": "Cc1ccc(CC(=O)Nc2ccc(OC(F)F)c(Cl)c2)cc1C", "inhibition of the nicotinamide effect (%)": 0.1}
{"COMPOUND": "CC12CN3CC(C)(CN(C1)C3c1ccc(Cl)cc1Cl)C2=O (stereo not given)", "inhibition of the nicotinamide effect (%)": 30.1}

# lookup: inhibition of the nicotinamide effect of COc1cccc(NC(=O)Cc2ccc(C)cc2)c1
-12.4

# lookup: inhibition of the nicotinamide effect of COc1ccc(C(=O)COC(=O)c2ccc3ccccc3n2)cc1
-4.94

# lookup: inhibition of the nicotinamide effect of Cc1ccc(C(=O)OCc2nc(N)nc(Nc3ccccc3C)n2)cc1
-3.73

# lookup: inhibition of the nicotinamide effect of COC(=O)c1cn(C)c2ccc(S(=O)(=O)N3CC(C)CC(C)C3)cc2c1=O (stereo not given)
-19.7

---

PROTOCOL_NOTES: rescue of nicotinamide-shortened yeast lifespan – S. cerevisiae, OD615, primary screen (AID 775);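 further: 0% = nicotinamide-treated wells and 100% = cells grown without nicotinamide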
CONDITION: S. cerevisiae growth with nicotinamide, at 10 µM, deaD strain in restrictive glucose medium
Screen size: about 130,000 compounds; about 900 (0.69%) were called active.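 How the source made its calls: active means inhibition above a set limit, placed 3 SD over the median of all compounds (cut at about 26% in these data); inactive means the rest.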 For the sample, actives were picked, then their nearest neighbours and some compounds at random.
Return exactly one item of active, inactive

Study these solved cases before continuing.
{"SMILES_REPR": "Cc1ccc(C)c2[nH]c(=O)c(CCNC(=O)c3cccs3)cc12", "CLASS_LABEL": "inactive"}
{"SMILES_REPR": "O=C(/C=C/Sc1ncn[nH]1)c1ccc(Cl)cc1", "CLASS_LABEL": "active"}

// switching to the query compound
Could you check what this test reported for CC(C)(C)c1ccc(C(=O)CSc2ncn[nH]2)cc1 ?
inactive

Reference source for all entries: PubChem BioAssay AID775
